Each recorded value in this set is attributed to the supplement of paper PMC10127200.

I'd appreciate it if you could supply Euclidean distance values for the items below.
- Test system: OVCAR4
- test-name: Euclidean distance of Cell Painting phenotypic profile (signed KS, 77 features) to DMSO centroid (dimensionless distance); 5 or 10 uM (library dependent); higher = stronger phenotypic change vs DMSO (phenoactivity)
- assay-context: 48 h
Number, no unit, nothing else.

# input What value of Euclidean distance has been reported for the following compound? `Cc1ccc2nc(NCCN)c3ncc(C)n3c2c1`
# output 1.57

# input Further, for CSCC1CN(/N=C/c2ccc([N+](=O)[O-])o2)C(=O)O1 (stereo not given) ?
# output 1.09

# input Also check `Cc1coc2c1C(=O)C(=O)c1c-2ccc2c1CCCC2(C)C`
# output 1.36

# input Now the same for Nc1ncnc2c1c(-c1cccc(OCc3ccccc3)c1)cn2C1CC(CN2CCCC2)C1 (stereo not given)
# output 1.87

# input // repeat for `Cc1nccn1CCC(C(N)=O)(c1ccccc1)c1ccccc1` and report
# output 1.42
